tested on: Hs578T; test: normalised response (% of control), CellTiter-Glo; higher = more viable cells (100 = DMSO, 0 = benzethonium chloride kill control); details: incubation time: 72 h
RESULT_TYPE: normalised response (%)
Answers are plain numbers, in %.

Example entries and their recorded answers appear below.
COMPOUND | REPORTED_RESULT
C#Cc1cccc(Nc2ncnc3cc(OCCOC)c(OCCOC)cc23)c1 [Erlotinib] (1000 nM) | 99.8
Cc1ccc(-n2nc(C(C)(C)C)cc2NC(=O)Nc2ccc(OCCN3CCOCC3)c3ccccc23)cc1 [Doramapimod] (1 nM) | 95.5
Oc1nc(-c2ccc(C(F)(F)F)cc2)nc2c1CSCC2 [XAV-939] (1 nM) | 97.1

Asked: # returns recorded normalised response (system: Hs578T) for O=C(O)c1ccc(-c2c[nH]c3ncc(-c4ccccc4)cc23)cc1C1CCCC1 (1 nM)
Given back: 98.3

----------
test system: MDA-MB-231; assay: normalised response (% of control), CellTiter-Glo; higher = more viable cells (100 = DMSO, 0 = benzethonium chloride kill control); conditions: incubation time: 72 h
RESULT_TYPE: normalised response (%)
Give bare numbers, in %.

Example entries and their recorded answers appear below.
MOLECULE | SYSTEM_UNDER_TEST | RESULT_TYPE | SCALE_UNIT | REPORTED_RESULT
CC1(C)NC(=O)N(c2ccc([N+](=O)[O-])c(C(F)(F)F)c2)C1=O [Nilutamide] (1 nM) | MDA-MB-231 | normalised response | % | 97.4
Cc1ccc(C(=O)Nc2ccc(CN3CCN(C)CC3)c(C(F)(F)F)c2)cc1C#Cc1cnc2cccnn12 [Ponatinib] (0.1 nM) | MDA-MB-231 | normalised response | % | 99.3

Each molecule below has a recorded value; state its normalised response.
1. C[C@]12CC[C@@H]3c4ccc(O)cc4C[C@@H](CCCCCCCCC[S+]([O-])CCCC(F)(F)C(F)(F)F)[C@H]3[C@@H]1CC[C@@H]2O (stereo not given in full) [Fulvestrant] (1 nM)
2. C#Cc1cccc(Nc2ncnc3cc(OCCOC)c(OCCOC)cc23)c1 [Erlotinib] (1 nM)
3. CCC1=C[C@@H]2CN(C1)Cc1c([nH]c3ccccc13)[C@@](C(=O)OC)(c1cc3c(cc1OC)N(C)[C@H]1[C@@](O)(C(=O)OC)[C@H](OC(C)=O)[C@]4(CC)C=CCN5CC[C@]31[C@@H]54)C2 [Vinorelbine] (1 nM)

Given back:
1. 101
2. 101
3. 107
